Consider the following compounds; for each one, report its MIC.
- Tested on: Haemophilus influenzae
- Assay Overview: Antibacterial activity against Haemophilus influenzae HIN 20-18 assessed as inhibition of bacterial growth incubated for 20 to 24 hrs by CLSI based broth microdilution method
- Assay type: functional
- Condition Context: time 20-24 hrs
Give bare numbers, in µg/mL.

Would you please look over these solved cases?
>  <Cpd Smiles>
CC[C@H]1OC(=O)[C@@](C)(F)C(=O)[C@H](C)[C@@H](O[C@@H]2O[C@H](C)C[C@H](N(C)C)[C@H]2O)[C@](C)(OC)C[C@@H](C)C(=O)[C@H](C)[C@H]2N(CCCOC(=O)Nc3ccc(Cl)cc3)C(=O)O[C@]12C

>  <Unit Name>
µg/mL

>  <MIC>
16

$$$$
>  <Cpd Smiles>
CC[C@H]1OC(=O)[C@@](C)(F)C(=O)[C@H](C)[C@@H](O[C@@H]2O[C@H](C)C[C@H](N(C)C)[C@H]2O)[C@](C)(OC)C[C@@H](C)C(=O)[C@H](C)[C@H]2N(CCCOC(=O)Nc3cccs3)C(=O)O[C@]12C

>  <Unit Name>
µg/mL

>  <MIC>
8

$$$$

Attention now shifts to the item below.
Q) Please report the recorded MIC for CC[C@H]1OC(=O)[C@@](C)(F)C(=O)[C@H](C)[C@@H](O[C@@H]2O[C@H](C)C[C@H](N(C)C)[C@H]2O)[C@](C)(OC)C[C@@H](C)C(=O)[C@H](C)[C@H]2N(CCCOC(=O)Nc3c(F)cccc3F)C(=O)O[C@]12C .
A) 16

Cited source: ChEMBL document CHEMBL5543097
